# credit: PubChem BioAssay AID1259407

test system: CCRIS mutagenicity, Ames/micronucleus/aberration tests; assay: CCRIS mutagenicity studies; conditions: Test System: AMES SALMONELLA TYPHIMURIUM; Strain/Indicator: TA98(NR); Metabolic Activation: NONE; Method: PREINCUBATION
Active and inactive are the calls of the source. The rule behind the calls is not given here.
Write down the outcome that applies. Available outcomes: yes (active), no (inactive)

Assay outcome for O=[N+]([O-])c1ccc(Cl)c([N+](=O)[O-])c1 : what was it?
yes

Assay outcome for O=[N+]([O-])c1ccc(F)c([N+](=O)[O-])c1 : what was it?
yes

Assay outcome for O=[N+]([O-])c1ccc2sc3ccccc3c2c1 : what was it?
yes

Assay outcome for Cc1ccc(Nc2ccc([N+](=O)[O-])cc2)cc1 : what was it?
no

Assay outcome for Nc1ccc(Oc2ccc([N+](=O)[O-])cc2)cc1 : what was it?
no

Assay outcome for O=[N+]([O-])c1cccc2nc3cccc([N+](=O)[O-])c3nc12 : what was it?
yes

Assay outcome for Nc1ccccc1N : what was it?
no

====

test system: CCRIS mutagenicity, Ames/micronucleus/aberration tests; test: CCRIS mutagenicity studies; settings: Test System: AMES SALMONELLA TYPHIMURIUM; Strain/Indicator: TA1537; Metabolic Activation: MOUSE, LIVER, S-9, AROCLOR 1254; Method: STANDARD PLATE
Activity calls are given as the source filed them. How the calls were made is not given here.
Write down the outcome that applies. Available outcomes: active, inactive

Assay outcome for COc1cc(-c2ccc(N=C=O)c(OC)c2)ccc1N=C=O : what was it?
inactive

Assay outcome for CC(=O)c1ccc(S(=O)(=O)NC(=O)NC2CCCCC2)cc1 : what was it?
inactive

Assay outcome for Nc1ccc2cc3ccc(N)cc3nc2c1 : what was it?
active

Assay outcome for CCOc1ccc(NC(C)=O)cc1N : what was it?
active

====

system: CCRIS mutagenicity, Ames/micronucleus/aberration tests; assay: CCRIS mutagenicity studies; settings: Test System: AMES SALMONELLA TYPHIMURIUM; Strain/Indicator: TA100; Metabolic Activation: NONE; Method: STANDARD PLATE
The source made the active and inactive calls. No rule for the calls is given here.
Write down the outcome that applies. Available outcomes: active, inactive

Assay outcome for Cc1ccc(-c2nc3n(c2[N+](=O)[O-])CCS3)cc1 : what was it?
active

Assay outcome for O=S1(=O)OC(c2cc(Br)c(O)c(Br)c2)(c2cc(Br)c(O)c(Br)c2)c2c(Br)c(Br)c(Br)c(Br)c21 : what was it?
inactive

Assay outcome for CCCCOc1cc(Br)ccc1C(=O)NOC(C)=O : what was it?
active

Assay outcome for O=C1c2c(ccc3ccccc23)-c2ccc3ccccc3c21 : what was it?
inactive

Assay outcome for CC(=O)Nc1ccc(C(=O)/C=C/c2ccccc2)cc1 : what was it?
inactive

Assay outcome for CC(=O)n1ncc(Cl)c(Cl)c1=O : what was it?
inactive

Assay outcome for CCCC(O)C(CC)CO (configuration not stated) : what was it?
inactive

Assay outcome for CN[C@H]1[C@@H](O[C@@H]2C3CC#CC4O[C@@]4(C4COC(=O)O4)C#CC3=C[C@H]2OC(=O)c2c(O)ccc3c(C)cc(OC)cc23)O[C@H](C)[C@H](O)[C@@H]1O (some centres not stated) : what was it?
inactive

Assay outcome for C=CC(=O)OCCCCOC(=O)C=C : what was it?
inactive

Assay outcome for CCCCOc1ccc2nc3cc(Cl)ccc3c(NCCCN(CC)CCCl)c2n1 : what was it?
inactive

Assay outcome for O=C1C=CC(=O)N1 : what was it?
inactive

Assay outcome for CCCCCCCC/C=C\CCCCCCCCN (tested in a mixture with another compound) : what was it?
inactive

====

test system: CCRIS mutagenicity, Ames/micronucleus/aberration tests; experiment: CCRIS mutagenicity studies; details: Test System: AMES SALMONELLA TYPHIMURIUM; Strain/Indicator: TA1537; Metabolic Activation: NONE; Method: PREINCUBATION
Active and inactive are the calls of the source. No rule for the calls is given here.
Write down the outcome that applies. Available outcomes: class 1 (active), class 0 (inactive)

Assay outcome for ClC(Cl)(Cl)Cl : what was it?
class 0

Assay outcome for NS(=O)(=O)c1cc2c(cc1Cl)NC=NS2(=O)=O : what was it?
class 0

Assay outcome for O=C(O)C1C(C(=O)O)C2(Cl)C(Cl)=C(Cl)C1(Cl)C2(Cl)Cl (stereo not drawn) : what was it?
class 0

Assay outcome for Clc1cccc(Cl)c1 : what was it?
class 0

Assay outcome for CCOc1ccc(N=Nc2ccc(-c3ccc(N=Nc4c(O)ccc5cc(S(=O)(=O)O)cc(S(=O)(=O)O)c45)c(C)c3)cc2C)cc1 : what was it?
class 0

Assay outcome for Cc1c(Br)c(Br)c(Br)c(Br)c1Br : what was it?
class 0

Assay outcome for O.[Cu].[Cu] : what was it?
class 0

Assay outcome for OCC(CBr)(CBr)CBr : what was it?
class 0

Assay outcome for CC1=CC(C)(C)Nc2ccccc21 : what was it?
class 0

Assay outcome for Cc1ccc(N)cc1C : what was it?
class 0

Assay outcome for Nc1cccc2nc3ccccc3c(N)c12 : what was it?
class 1

Assay outcome for Nc1ccc([N+](=O)[O-])cc1O : what was it?
class 1

Assay outcome for CN(Cc1cnc2nc(N)nc(N)c2n1)c1c(Cl)cc(C(=O)N[C@@H](CCC(=O)O)C(=O)O)cc1Cl : what was it?
class 0

Assay outcome for COc1c(Cl)c(Cl)c(Cl)c(Cl)c1Cl : what was it?
class 1

Assay outcome for O=C(O)c1ccc([N+](=O)[O-])cc1 : what was it?
class 0

Assay outcome for CCNCCN : what was it?
class 0

Assay outcome for CC1=CC(=C(c2ccc(N)cc2)c2ccc(N)cc2)C=CC1=N : what was it?
class 0

Assay outcome for Clc1c(Cl)c(Br)c2c(c1Cl)-c1nc-2nc2[n-]c(nc3nc(nc4[n-]c(n1)c1c(Cl)c(Br)c(Cl)c(Br)c41)-c1c(Cl)c(Cl)c(Br)c(Cl)c1-3)c1c(Br)c(Cl)c(Br)c(Cl)c21.[Cu+2] : what was it?
class 0

Assay outcome for BrC(Br)Br : what was it?
class 0

Assay outcome for CSCCC=O : what was it?
class 0

Assay outcome for Cc1ccc(S(=O)(=O)NN)cc1 : what was it?
class 0

Assay outcome for Clc1cccc(Cl)c1NC1=NCCN1 : what was it?
class 0

Assay outcome for CC(CCN(C)C)N(C)C (stereo not drawn) : what was it?
class 0

Assay outcome for CC1=CC(=O)c2ccccc2C1=O : what was it?
class 0

Assay outcome for Cc1ccc2nc3ccc(C)cc3c(N)c2c1 : what was it?
class 1

Assay outcome for Nc1ccccc1N : what was it?
class 0

Assay outcome for Nc1nc(N)c2nc(-c3ccccc3)c(N)nc2n1 : what was it?
class 0

Assay outcome for OCC(CO)(CO)CO : what was it?
class 0

====

tested on: CCRIS mutagenicity, Ames/micronucleus/aberration tests; assay: CCRIS mutagenicity studies; settings: Test System: AMES SALMONELLA TYPHIMURIUM; Strain/Indicator: TA100; Metabolic Activation: RAT, LIVER, S-9, PCB; Method: PREINCUBATION
Activity calls are given as the source filed them. The rule behind the calls is not given here.
Write down the outcome that applies. Available outcomes: 1.0 for active, 0.0 for inactive

Assay outcome for CC(c1ccccc1)N(C)C (stereo not given) : what was it?
0.0

Assay outcome for O=C1c2ccccc2C(=O)c2c1ccc(O)c2O : what was it?
0.0

Assay outcome for N#CCCC(=O)/C=C/c1ccc(C(=O)O)cc1 : what was it?
0.0

Assay outcome for CN(C)C(=N)N(C)C : what was it?
0.0

Assay outcome for c1cnccn1 : what was it?
0.0

Assay outcome for Clc1nncc2cccnc12 : what was it?
1.0

Assay outcome for Nc1nc(-c2cccc([N+](=O)[O-])c2)nc2c1ncn2[C@@H]1O[C@H](CO)[C@@H](O)[C@H]1O : what was it?
1.0

Assay outcome for CN(C)Cc1ccccc1 : what was it?
0.0

Assay outcome for C1CN2CCN1CC2 : what was it?
0.0

Assay outcome for O=C(CBr)c1ccccc1 : what was it?
0.0

Assay outcome for COc1cc(-c2ccc(N)c(OC)c2)ccc1N : what was it?
1.0

Assay outcome for NNc1nncc2ccncc12 : what was it?
1.0

Assay outcome for CCCCC1C(=O)N(c2ccccc2)N(c2ccc(O)cc2)C1=O (stereo not given) : what was it?
1.0

Assay outcome for Cc1cc(O)c2c(c1O)C(=O)c1ccccc1C2=O : what was it?
1.0

Assay outcome for Nc1ccccc1N : what was it?
1.0

====

system: CCRIS mutagenicity, Ames/micronucleus/aberration tests; test: CCRIS mutagenicity studies; settings: Test System: AMES SALMONELLA TYPHIMURIUM; Strain/Indicator: TA104; Metabolic Activation: NONE; Method: PREINCUBATION
The source made the active and inactive calls. The rule behind the calls is not given here.
Readout Kind: mutagenic call

As a guide, the following entries are already answered.
[[record]]
compound = "Cc1cc(C(C)(C)C)c(O)c(C(C)(C)C)c1"
result = "inactive; negative"

[[record]]
compound = "OCC(CO)(CO)CO"
result = "inactive; negative"

[[record]]
compound = "C=CC(=O)O"
result = "inactive; negative"

[[record]]
compound = "Cc1ccccc1Cl"
result = "inactive; negative"

[[record]]
compound = "O=Cc1c(Cl)cccc1Cl"
result = "inactive; negative"

[[record]]
compound = "CCO"
result = "inactive; negative"

[[record]]
compound = "O=Cc1cccc(Cl)c1"
result = "inactive; negative"

[[record]]
compound = "Cc1c2ccccc2c(C)c2c3c(ccc12)C(=O)C(=O)C=C3"
result = "inactive; negative"

[[record]]
compound = "O=C(Cl)c1cccc(Cl)c1"
result = "inactive; negative"

[[record]]
compound = "O[C@@H]1[C@H]2O[C@H]2c2c(ccc3ccccc23)[C@H]1O"
result = "active; positive"


According to the records, this compound O=C1OC2(c3ccccc31)c1cc(I)c(O)c(I)c1Oc1c2cc(I)c(O)c1I displays mutagenic call of inactive; negative

According to the records, this compound Cc1cnc[nH]1 displays mutagenic call of inactive; negative

According to the records, this compound O displays mutagenic call of inactive; negative
